Data provenance: patent US11072617B2

These molecules were tested on human RIP1 kinase domain (2-375) (Homo sapiens (Human), UniProt Q13546); pKi is the recorded read-out.
Sequence (Q13546 2-375): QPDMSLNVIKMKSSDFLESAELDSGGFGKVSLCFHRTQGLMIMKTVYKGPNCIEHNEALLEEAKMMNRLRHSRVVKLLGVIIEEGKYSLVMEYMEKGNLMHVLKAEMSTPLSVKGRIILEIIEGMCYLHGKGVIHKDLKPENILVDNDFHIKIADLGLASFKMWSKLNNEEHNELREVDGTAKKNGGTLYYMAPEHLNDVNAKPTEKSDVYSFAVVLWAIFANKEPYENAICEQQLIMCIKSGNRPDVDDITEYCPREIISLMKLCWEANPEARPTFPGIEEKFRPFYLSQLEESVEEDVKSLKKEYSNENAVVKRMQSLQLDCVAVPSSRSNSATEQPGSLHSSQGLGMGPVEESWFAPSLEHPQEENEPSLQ
One number for each entry, as −log10 of the molar value.

molecule	pKi
CC[S+]([O-])c1nc2n(n1)[C@H](c1ccccc1)C[C@@H]2F (some centres unmarked)	7.47
[O-][S@@+](CC1CC1)c1nc2n(n1)[C@H](c1ccccc1)C[C@@H]2F (single isomer, unassigned)	7.70
CC(C)[S+]([O-])c1nc2n(n1)[C@H](c1ccccc1)C[C@@H]2F (some centres unmarked)	7.72
N#CCSc1nc2n(n1)[C@H](c1ccccc1)C[C@@H]2F (single isomer, unassigned)	8.00
O=S(=O)(c1nc2n(n1)[C@H](c1ccc(F)c(F)c1)C[C@@H]2F)C(F)F (single isomer, unassigned)	7.47

Look at each molecule and report its pKi.
1. CS(=O)(=O)c1nc2n(n1)[C@H](c1ccccc1)C[C@@H]2F (single isomer, unassigned)
2. O=S(=O)(c1nc2n(n1)[C@H](c1cc(F)ccc1F)C[C@@H]2F)C1CC1 (single isomer, unassigned)
3. CC[S@+]([O-])c1nc2n(n1)[C@H](c1ccccc1)CC2
4. N#CC[S@@+]([O-])c1cc2n(n1)[C@H](c1ccccc1)C[C@@H]2F (single isomer, unassigned)
5. O=S(=O)(CCO)c1nc2n(n1)[C@H](c1ccccc1)C[C@@H]2F (single isomer, unassigned)
6. CC(C)(C)S(=O)(=O)c1nc2n(n1)[C@H](c1ccccc1)C[C@@H]2F (single isomer, unassigned)
7. O=S(=O)(c1nc2n(n1)[C@H](c1cc(F)ccc1F)C[C@@H]2F)C(F)F (single isomer, unassigned)
8. N#C[C@@H]1C[C@H]1S(=O)(=O)c1nc2n(n1)[C@H](c1ccccc1)C[C@@H]2F

7.66
8.22
6.79
6.82
6.72
7.49
8.30
7.96

====

# tested.target: human RIP1 kinase domain (2-375) (Homo sapiens (Human))
Our labelling divides records by Ki into ranges: b0 (below 0.02 µM), b1 (0.02 µM to below 0.2 µM), b2 (0.2 µM or more)

compound	group
[O-][S@@+](CF)c1nc2n(n1)[C@H](c1cccc(F)c1)C[C@@H]2F (single isomer, unassigned)	b0
CC[S@@+]([O-])c1nc2n(n1)[C@H](c1ccccc1)C[C@@H]2F (single isomer, unassigned)	b2
N#CC[S@+]([O-])c1cc2n(n1)[C@H](c1ccccc1)C[C@@H]2F (single isomer, unassigned)	b0
O=S(=O)(c1nc2n(n1)[C@H](c1ccccc1F)C[C@@H]2F)C(F)(F)F (single isomer, unassigned)	b0
O=S(=O)(c1nc2n(n1)C(c1cc(F)cc(F)c1)CC2)C(F)F (racemic)	b2
N#Cc1cccc([C@@H]2C[C@H](F)c3nc(S(=O)(=O)C(F)F)nn32)c1 (single isomer, unassigned)	b2

Quick check: band for COCCS(=O)(=O)c1nc2n(n1)[C@H](c1ccccc1)C[C@@H]2F (single isomer, unassigned)
b1

Quick check: band for O=S(=O)(c1nc2n(n1)[C@H](c1cccc(F)c1)C[C@@H]2F)[C@H]1C[C@H](F)C1 (single isomer, unassigned)
b0

Quick check: band for O=S(=O)(c1nc2n(n1)[C@H](c1ccc(F)c(F)c1)C[C@@H]2F)[C@H]1C[C@@H]1F (single isomer, unassigned)
b1

Quick check: band for CCCS(=O)(=O)c1nc2n(n1)[C@H](c1ccccc1)C[C@@H]2F (single isomer, unassigned)
b1

====

# tested.target: human RIP1 kinase domain (2-375) (Homo sapiens (Human), UniProt Q13546)
# protocol: RIP1 kinase inhibition biochemical assay (Transcreener ADP, fluorescence polarization)
# reported.conditions: Ki app from tight-binding Morrison equation; 50 nM enzyme, 50 uM ATP, 2 hours incubation
# Experimental: RIP1 Kinase Inhibition Assays (Biochemical Assay) The compounds of the present invention were tested for their capacity to inhibit RIP1K activity as described below. The ability of the receptor interacting protein kinase (RIPK1) to catalyze the hydrolysis of adenosine-5′-triphosphate (ATP) is monitored using the Transcreener ADP (adenosine-5′-diphosphate) assay (BellBrook Labs). […]
Kindly state pKi for each of the entries shown.
Numbers only, as −log10 of the molar value.

compound	pKi
O=S(=O)(c1nc2n(n1)[C@H](c1cc(F)ccc1F)C[C@@H]2F)C1CC1(F)F (single isomer, unassigned)	7.92

Look at each compound and report its pKi.
1. O=S(=O)(c1nc2n(n1)[C@H](c1ccccc1F)C[C@@H]2F)[C@H]1CC1(F)F (single isomer, unassigned)
2. O=S(=O)(c1ccccc1)c1nc2n(n1)[C@H](c1ccccc1)C[C@@H]2F (single isomer, unassigned)
3. [O-][S+](c1nc2n(n1)C(c1ccccc1)CC2)C(F)F (stereo not shown)
4. [O-][S@+](c1nc2n(n1)[C@H](c1ccccc1)C[C@@H]2F)C(F)(F)F (single isomer, unassigned)

8.15
5.49
7.24
8.40

====

These compounds were tested on human RIP1 kinase domain (2-375) (Homo sapiens (Human)); pKi is the recorded read-out.
Numbers only, as −log10 of the molar value.

Examples from the recorded data:
compound	tested.target	recorded.number
O=S(=O)(c1nc2n(n1)[C@@H](c1cccc(F)c1F)C[C@H]2F)C(F)(F)F (single isomer, unassigned)	human RIP1 kinase domain (2-375) (Homo sapiens (Human))	6.27
[O-][S+](c1nc2n(n1)[C@H](c1ccccc1)C[C@@H]2F)C1CC1(F)F (stereo partly shown)	human RIP1 kinase domain (2-375) (Homo sapiens (Human))	7.92
O=S(=O)(c1nc2n(n1)[C@H](c1cccc(F)c1F)C[C@@H]2F)[C@H]1C[C@@H]1F (single isomer, unassigned)	human RIP1 kinase domain (2-375) (Homo sapiens (Human))	8.22
O=S(=O)(c1nc2n(n1)C(c1ccccc1)CC2)C(F)F (racemic)	human RIP1 kinase domain (2-375) (Homo sapiens (Human))	7.00
[O-][S@@+](c1nc2n(n1)[C@H](c1ccccc1F)C[C@@H]2F)C(F)F (single isomer, unassigned)	human RIP1 kinase domain (2-375) (Homo sapiens (Human))	6.85

Look at each compound and report its pKi.
1. [O-][S@@+](c1nc2n(n1)[C@H](c1ccccc1)C[C@@H]2F)C(F)(F)F (single isomer, unassigned)
2. [O-][S@+](c1nc2n(n1)[C@H](c1cccc(F)c1)C[C@@H]2F)C(F)F (single isomer, unassigned)

[6.52, 8.22]

====

These compounds were tested on human RIP1 kinase domain (2-375) (Homo sapiens (Human)); pKi is the recorded read-out.
Answers are plain numbers, as −log10 of the molar value.

Examples from the recorded data:
compound	pKi
O=S(=O)(c1nc2n(n1)[C@H](c1cccc(Cl)c1F)C[C@@H]2F)C(F)F (single isomer, unassigned) [Example 65]	7.74
O=S(=O)(c1nc2n(n1)[C@H](c1cc(F)cc(Cl)c1)C[C@@H]2F)C1CC1 (single isomer, unassigned) [Example 214]	7.54

Next item in the queue.
Given the compound O=S(=O)(c1nc2n(n1)[C@H](c1cc(F)cc(Cl)c1)C[C@@H]2F)C1CC1F (stereo in doubt) [Example 199] , what is its reported pKi?
8.10

====

Kindly state pKi for each of the entries shown.
# tested.target: human RIP1 kinase domain (2-375) (Homo sapiens (Human))
# protocol: RIP1 kinase inhibition biochemical assay (Transcreener ADP, fluorescence polarization)
# reported.conditions: Ki app from tight-binding Morrison equation; 50 nM enzyme, 50 uM ATP, 2 hours incubation
# Method: RIP1 Kinase Inhibition Assays (Biochemical Assay) The compounds of the present invention were tested for their capacity to inhibit RIP1K activity as described below. The ability of the receptor interacting protein kinase (RIPK1) to catalyze the hydrolysis of adenosine-5′-triphosphate (ATP) is monitored using the Transcreener ADP (adenosine-5′-diphosphate) assay (BellBrook Labs). […]
Answers are plain numbers, as −log10 of the molar value.

Examples from the recorded data:
molecule	pKi
O=S(=O)(c1cc2n(n1)[C@H](c1ccccc1)C[C@@H]2F)C1CC1	8.00
O=S(=O)(c1nc2n(n1)[C@H](c1cc(F)cc(Cl)c1)C[C@@H]2F)C(F)F (single isomer, unassigned)	7.49
O=S(=O)(c1nc2n(n1)[C@H](c1ccccc1)C[C@@H]2F)C1COC1 (single isomer, unassigned)	8.22

Given the molecule O=S(=O)(c1nc2n(n1)[C@H](c1cc(Cl)ccc1F)C[C@@H]2F)C(F)F , what is its reported pKi?
7.16

====

These compounds were tested on human RIP1 kinase domain (2-375) (Homo sapiens (Human), UniProt Q13546); Ki is the recorded read-out.
Numbers only, in nM.

compound	tested.target	recorded.number
O=S(=O)(c1nc2n(n1)[C@H](c1ccccc1F)C[C@@H]2F)C1CC1	human RIP1 kinase domain (2-375) (Homo sapiens (Human), UniProt Q13546)	5

Look at each compound and report its Ki.
1. N#CC1CC1S(=O)(=O)c1nc2n(n1)[C@H](c1ccccc1)C[C@@H]2F (stereo in doubt)
2. O=S(=O)(c1nc2n(n1)[C@H](c1cccc(F)c1F)C[C@@H]2F)C(F)F (single isomer, unassigned)
3. [O-][S+](c1nc2n(n1)[C@H](c1cccc(F)c1)C[C@@H]2F)C(F)F (stereo partly shown)
4. CCS(=O)(=O)c1nc2n(n1)[C@H](c1ccccc1F)CC2 (single isomer, unassigned)
5. N#CC[S@+]([O-])c1nc2n(n1)[C@@H](c1ccccc1Cl)C[C@H]2F (single isomer, unassigned)

[61, 6, 17, 290, 47]
